For each entry below, report its cytotoxicity at 10 µM value.
Assay: Toxicity liver stage against HepG2, at 10uM
Type: cell-based
Design: test concentration 10 uM, cell line HepG2-A16-CD81EGFP
Details: human, HepG2-A16-CD81EGFP cells; read-out: INHIBITION
// unit must come after the numeric part

// sample "Cc1noc(NC(=O)c2ccc(Br)cc2)n1" , its cytotoxicity at 10 µM was 32.9%

// sample "CN(C)CCNC(=O)CCC1CCN(C(=O)c2ccc(Cl)cc2O)CC1" , its cytotoxicity at 10 µM was -11.7%

// sample O=C1CCCN1CC1CCCCN1C(=O)Nc1cccnc1 (configuration not stated) , its cytotoxicity at 10 µM was -0.123%

// sample CC(NC(=O)c1cn(CCC2CCCCC2)nn1)c1cnn(C)c1 (configuration not stated) , its cytotoxicity at 10 µM was 6.2%

// sample Cc1nc(CN2CCC3(CCCN(Cc4ccoc4)C3)C2=O)cs1 (configuration not stated) , its cytotoxicity at 10 µM was -0.142%

// sample COc1cccc(COC(C)C(=O)NCc2nnc3n2CCC3)c1 (configuration not stated) , its cytotoxicity at 10 µM was 8.67%

// sample O=C(c1cc(C2CCCCC2)no1)N1C[C@H]2CC(O)C[C@H]2C1 (some centres not stated) , its cytotoxicity at 10 µM was -3.89%

// sample "CO[C@@H]1CN(c2ccccc2)S(=O)(=O)[C@@]12CCN(Cc1cncs1)C2" , its cytotoxicity at 10 µM was 5.63%

// sample "CN(C)CCn1c([C@@H]2CCCO2)cc2cccnc21" , its cytotoxicity at 10 µM was -25.4%

// sample CS(=O)(=O)N1CCCC(Cc2ccnc3ccncc23)CC1 (configuration not stated) , its cytotoxicity at 10 µM was -12.8%

// sample "O=C(NC[C@H]1C[C@@H]2CN(C(=O)c3ccco3)C[C@@H]2O1)c1ccsc1" , its cytotoxicity at 10 µM was -90.8%

// sample "COCc1nc(C2CC2)nn1-c1cccc(F)c1" , its cytotoxicity at 10 µM was 2.64%

// sample "Cc1nc(CN2CCN(c3nc4c(s3)c(C)nn4C)CC2)cs1" , its cytotoxicity at 10 µM was 15.6%

// sample "NS(=O)(=O)NCc1cc(-c2ccco2)n(CC(F)(F)F)n1" , its cytotoxicity at 10 µM was -4.41%

// sample "COc1ccc(F)c(CN(CCCn2ccnc2)Cc2ccc(C)s2)c1" , its cytotoxicity at 10 µM was -7.14%

// sample CCn1cnnc1CNC(=O)NC(C)c1ccc(Cl)s1 (configuration not stated) , its cytotoxicity at 10 µM was -23.1%

// sample COc1ccc2c(c1)OCC(CNC(=O)c1ccc(=O)n(C)c1)C2 (configuration not stated) , its cytotoxicity at 10 µM was -11.2%

----------
For each entry below, report its cytotoxicity at 10 µM value.
Test: Toxicity liver stage against HepG2, at 10uM
Type: cell-based
Set-up: test concentration 10 uM, cell line HepG2-A16-CD81EGFP
Conditions: human, HepG2-A16-CD81EGFP cells; read-out: INHIBITION

// sample Cc1c[nH]c(CN2CCCCC2CCn2ccnc2C)c(C)c1=O (stereo not drawn) , its cytotoxicity at 10 µM was 0.585%

// sample "COCCN(Cc1cnn(C)c1)CC1CCN(C(C)C)CC1" , its cytotoxicity at 10 µM was -9%

// sample CN(C)C(=O)CCC[S+]([O-])Cc1cc(Cl)ccc1Cl (stereo not drawn) , its cytotoxicity at 10 µM was 12.5%

// sample "Cn1ccc(CN2CCC(OCc3ccccc3)CC2)cc1=O" , its cytotoxicity at 10 µM was 0.259%

// sample CC(C)C(=O)NCCNC(=O)C(C)OCC(F)(F)F (stereo not drawn) , its cytotoxicity at 10 µM was -5.56%

// sample "O=C(c1cscn1)N1C[C@H](OCc2cccnc2)[C@H]2COC[C@H]21" , its cytotoxicity at 10 µM was -2.07%

// sample "Cc1ccc(N(CCC#N)C(=O)CCc2cscn2)cc1C" , its cytotoxicity at 10 µM was 6.36%

// sample CC(O)C1CCN(C(=O)Nc2nc(-c3ccccc3)ns2)CC1 (stereo not drawn) , its cytotoxicity at 10 µM was -135%

// sample CC(NC(=O)NCC1(c2ccc(Cl)cc2)CC1)c1nncn1C (stereo not drawn) , its cytotoxicity at 10 µM was -3.25%

// sample NC(=O)C1CN(C(=O)Nc2ccccc2SC2CCCC2)CCO1 (stereo not drawn) , its cytotoxicity at 10 µM was -5.15%

// sample "Cc1ccc(N2CC[C@@H]3[C@@H]2CCN3C(=O)Cc2cccs2)nn1" , its cytotoxicity at 10 µM was -99.8%

// sample Cc1noc(C)c1CCCNC(=O)C1CCCN(C(=O)C2CC2)C1 (stereo not drawn) , its cytotoxicity at 10 µM was -0.185%

// sample "Cc1cccc(CN2CCc3[nH]nc(C(=O)N(C)C)c3C2)n1" , its cytotoxicity at 10 µM was -0.596%

// sample CS(=O)(=O)NCC1CCN(Cc2cc3ccccc3[nH]c2=O)C1 (stereo not drawn) , its cytotoxicity at 10 µM was -6.92%

// sample "CC1CCN(Cc2cc(=O)[nH]c(=O)[nH]2)CC1" , its cytotoxicity at 10 µM was 9.95%

// sample "Cc1cnc(C)c(N2CCN(Cc3ccc(C)c(C)c3)CC2)n1" , its cytotoxicity at 10 µM was 6.68%

// sample Cc1cnc2n(c1=O)C(CC(=O)NCc1ccco1)CS2 (stereo not drawn) , its cytotoxicity at 10 µM was -5.52%

// sample "CN(Cc1ccncc1)C1CC2(CCN(C(=O)c3ccnnc3)CC2)C1" , its cytotoxicity at 10 µM was -5.45%

// sample "Cc1oc(-c2cccc(F)c2F)nc1CN(CCO)C(C)C" , its cytotoxicity at 10 µM was -15.2%

// sample "CCS(=O)(=O)N1CC[C@H]2[C@H]1CC(=O)N2Cc1csc(C)n1" , its cytotoxicity at 10 µM was -133%

// sample CSc1ccsc1C(=O)NC(C)c1ccc2c(c1)CCC(=O)N2 (stereo not drawn) , its cytotoxicity at 10 µM was 1.28%

// sample "COc1ccnc(N2CCN(C(=O)CN3CCCC3=O)CC2)n1" , its cytotoxicity at 10 µM was -5.21%

// sample COCCn1cncc1CN1CCCC(C)(c2ccccc2)C1 (stereo not drawn) , its cytotoxicity at 10 µM was 0.363%
